target: CHEK2 (Homo sapiens, UniProt O96017)
Sequence (O96017 whole entry): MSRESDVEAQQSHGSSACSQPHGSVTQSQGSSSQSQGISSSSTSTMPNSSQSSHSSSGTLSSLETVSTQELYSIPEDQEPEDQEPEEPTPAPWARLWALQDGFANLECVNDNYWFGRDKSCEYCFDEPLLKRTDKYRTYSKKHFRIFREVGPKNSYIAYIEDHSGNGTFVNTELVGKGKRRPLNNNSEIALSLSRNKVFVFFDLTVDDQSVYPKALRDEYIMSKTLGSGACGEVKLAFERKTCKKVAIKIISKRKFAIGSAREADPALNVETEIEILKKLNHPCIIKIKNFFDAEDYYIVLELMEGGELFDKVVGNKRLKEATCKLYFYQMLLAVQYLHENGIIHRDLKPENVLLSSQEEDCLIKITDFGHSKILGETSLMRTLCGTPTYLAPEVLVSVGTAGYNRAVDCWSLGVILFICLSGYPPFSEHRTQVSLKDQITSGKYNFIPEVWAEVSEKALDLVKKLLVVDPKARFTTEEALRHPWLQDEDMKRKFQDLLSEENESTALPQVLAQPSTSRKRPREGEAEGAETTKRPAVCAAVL
EXPERIMENTAL_READOUT: pIC50
Scale: pIC50 equals -log10([C]), with [C] in mol/L.

For the molecule shown here, CNc1ncc(-c2ccc(Cc3c(Cl)cc(OC)cc3Cl)o2)cn1 [Compound Ia] , give the reported pIC50.
6.13

----------
tested on: U-87 (brain tumour); assay: Cell proliferation, U-87; type: cell-based; details: Homo sapiens, U-87 MG
EXPERIMENTAL_READOUT: pIC50
Scale: pIC50 equals -log10([C]), with [C] in mol/L.

Item CNc1ncc(-c2ccc(Cc3c(Cl)cc(OC)cc3Cl)o2)cn1 with U-87 (brain tumour) - pIC50?
5.18
